- System: OVCAR-8
- experiment: NCI tumour cell line growth inhibition, 48 h
The source made the active and inactive calls. Cut-off read from the data, not from the text of the source: active = GI50 up to about 1.1 µM and inactive = higher. Residues, ends and D or L forms follow the SMILES beside them. *: point of attachment. Bn = c1ccc(C*)cc1
readout: GI50

Would you please look over these solved cases?
{"compound": "COC(=O)C(CC(C)C)NC(=O)C(N)Cc1ccc(OCc2ccccc2)cc1 (centres undefined) (H-Tyr(Bn)-Leu-OMe; configuration not given here)", "GI50": "> 10 µM (inactive)"}
{"compound": "c1ccc(CN2CCc3[nH]c4ccccc4c3C2)cc1", "GI50": "46.1 µM (inactive)"}
{"compound": "CC(C)(C)OC(=O)NCC(=O)NC1c2ccsc2/C(=N/O)[C@H]1O (some centres undefined)", "GI50": "> 100 µM (inactive)"}

Would you kindly look at the next entry?
// query GI50 value for entry `COc1nc(OC)nc(Sc2ccc(Sc3ccc(Sc4nc(OC)nc(OC)n4)cc3)cc2)n1`
> 100 µM (inactive)

###

- System: DU-145
- experiment: NCI tumour cell line growth inhibition, 48 h
Activity calls are given as the source filed them. No stated cut-off is given here; in the data, active = GI50 up to about 1.1 µM and inactive = higher.
readout: GI50

{"compound": "C=C1CC(CN2CCC(=O)NC2=O)(c2ccccc2)OC1=O (configuration not stated)", "GI50": "15.9 µM (inactive)"}
{"compound": "O=C1c2ccccc2OCC12OC21C=CC(Cl)=CC1 (configuration not stated)", "GI50": "14.4 µM (inactive)"}
{"compound": "OC(COc1ccccc1)CN1CCCCC1 (configuration not stated)", "GI50": "> 100 µM (inactive)"}

Provide value of GI50 for this record tested with DU-145: `COc1ccc2c(c1)c1c(n2CCN(C)C)-c2cccc(OC)c2CC1`
17.7 µM (inactive)

Please provide the recorded GI50 for O=C(NCC(O)COc1ccccc1)c1ccccc1O (configuration not stated) , tested on DU-145.
> 100 µM (inactive)

Write down the reported GI50 of `COC(=O)/C=C(/C)n1nc2ccccc2n1` , test system: DU-145.
> 100 µM (inactive)

For DU-145, provide GI50 of `COc1cc(N(CCC#N)CCC#N)ccc1C(=N/NC(=O)c1cc(Br)ccc1O)/N=N/c1ccc(C)cc1` please.
27.4 µM (inactive)

###

- Test system: CAKI-1
- experiment: NCI tumour cell line growth inhibition, 48 h
Active and inactive are the calls of the source. Rule as the data show it: active = GI50 up to about 1.1 µM and inactive = higher. Residues, ends and D or L forms follow the SMILES beside them. *: point of attachment. Bn = c1ccc(C*)cc1
Catalogue of GI50 readings, one per entry.

Recorded results for 5 molecules are shown here.
{"molecule": "COC(=O)C(CC(C)C)NC(=O)C(N)Cc1ccc(OCc2ccccc2)cc1 (centres undefined) (H-Tyr(Bn)-Leu-OMe; configuration not given here)", "GI50": "> 10 µM (inactive)"}
{"molecule": "CC(NCc1c(O)ccc2ccc(=O)oc12)C(=O)O (centres undefined)", "GI50": "> 100 µM (inactive)"}
{"molecule": "CCCN1CC=C(c2cc(C(=O)OCC)[nH]c2-c2cc(C)no2)C1=O", "GI50": "> 100 µM (inactive)"}
{"molecule": "Nc1ccc2c(SCCSc3c4ccccc4nc4cc(N)ccc34)c3ccccc3nc2c1", "GI50": "> 100 µM (inactive)"}
{"molecule": "COC(=O)C(=O)C(C(=O)C(=O)Nc1ccc([N+](=O)[O-])cc1)c1nc2ccccc2nc1O (centres undefined)", "GI50": "53.2 µM (inactive)"}

For the molecule `Cn1nc2ccc3nccc(NCCNCCO)c3c2n1` , what GI50 is on record?
63 µM (inactive)

Look at this molecule and give its reported GI50. O=[N+]([O-])C1CC/C(=N/O)c2nonc21 (centres undefined)
> 10 µM (inactive)

Recorded GI50 of `CCC(=O)O[C@H]1CC[C@H]2[C@@H]3CCC4=CC(=O)C=C[C@]4(O)[C@H]3CC[C@]12C` , please.
24.3 µM (inactive)

For the molecule `O=[N+]([O-])C(C(Cl)=C(Cl)Cl)=C(N1CCCCC1)N1CCCCC1` , what GI50 is on record?
58.6 µM (inactive)

What does the data say about its GI50? Entry: `Cc1nn(-c2ccccc2)c(-c2ccccc2[N+](=O)[O-])c1CC#N`
> 100 µM (inactive)

Data provenance: ChEMBL document CHEMBL1201862
